Target: Aromatase (Homo sapiens)
Sequence (P11511 whole entry): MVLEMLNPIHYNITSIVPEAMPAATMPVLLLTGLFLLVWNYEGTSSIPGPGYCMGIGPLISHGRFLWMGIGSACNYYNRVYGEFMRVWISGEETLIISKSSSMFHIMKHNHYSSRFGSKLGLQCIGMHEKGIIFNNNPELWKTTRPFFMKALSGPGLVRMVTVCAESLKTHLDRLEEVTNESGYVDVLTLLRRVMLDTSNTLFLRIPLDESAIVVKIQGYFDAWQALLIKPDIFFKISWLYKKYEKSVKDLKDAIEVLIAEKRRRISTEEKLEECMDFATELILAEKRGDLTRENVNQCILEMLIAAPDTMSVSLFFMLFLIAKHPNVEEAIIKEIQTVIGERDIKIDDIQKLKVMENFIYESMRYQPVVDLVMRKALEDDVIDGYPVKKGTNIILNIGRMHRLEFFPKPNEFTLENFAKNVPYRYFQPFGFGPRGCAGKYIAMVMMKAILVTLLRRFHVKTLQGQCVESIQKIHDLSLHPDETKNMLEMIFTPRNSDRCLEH
Test: Inhibition of aromatase in human SKBR3 cells at 100 uM relative to control
Assay type: cell-based
Parameters: scale not given: the % may be the effect or the level left
Details: SK-BR-3, human; read-out: Activity
MEASUREMENT_LABEL: activity at 100 µM (%)
Dear colleague, please return just the value in %, with no unit written.

Example molecules with recorded activity at 100 µM:
MOLECULE	TARGET_OR_SYSTEM	activity at 100 µM, %
CC/C=C\C/C=C\C/C=C\C/C=C\C/C=C\CCCCCC(=O)O [DOCOSAPENTAENOIC ACID]	Aromatase (Homo sapiens)	94.4
CCCCC/C=C\C/C=C\C/C=C\C/C=C\CCCC(=O)O [ARACHIDONIC ACID]	Aromatase (Homo sapiens)	147
CC/C=C\C/C=C\C/C=C\C/C=C\C/C=C\CCCC(=O)O [ICOSAPENT]	Aromatase (Homo sapiens)	138
CCCCCCCC/C=C\CCCCCCCC(=O)O [OLEIC ACID]	Aromatase (Homo sapiens)	99.3
CCCCC/C=C\C/C=C\CCCCCCCC(=O)O [LINOLEIC ACID]	Aromatase (Homo sapiens)	148

Record lookup: for Aromatase (Homo sapiens), what activity at 100 µM belongs to CC/C=C\C/C=C\C/C=C\CCCCCCCC(=O)O [LINOLENIC ACID] ?
92.8

Record lookup: for Aromatase (Homo sapiens), what activity at 100 µM belongs to CC/C=C\C/C=C\C/C=C\C/C=C\C/C=C\C/C=C\CCC(=O)O [DOCONEXENT] ?
98.2

// data source = ChEMBL document CHEMBL1157337
